system-tested: PPARα (Homo sapiens)
Sequence (Q07869 167-468 limits assumed): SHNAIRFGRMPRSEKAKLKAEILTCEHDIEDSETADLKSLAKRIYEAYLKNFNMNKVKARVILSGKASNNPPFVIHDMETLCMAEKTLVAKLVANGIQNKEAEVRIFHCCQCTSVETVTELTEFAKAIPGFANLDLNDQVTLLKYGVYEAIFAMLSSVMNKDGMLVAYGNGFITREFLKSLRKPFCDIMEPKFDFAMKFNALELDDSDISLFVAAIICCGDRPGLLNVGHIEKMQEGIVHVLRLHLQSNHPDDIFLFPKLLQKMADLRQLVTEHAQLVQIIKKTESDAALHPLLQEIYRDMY
protocol-text: Radioligand binding assay, GST-PPARα-LBD fusion protein
reported-property: pIC50
Numbers only, as −log10 of the molar value.

Req: So what's the measured pIC50 for this one? "CCO[C@@H](Cc1ccc(OCCc2nc(C(C)(C)C)oc2C)c2ccccc12)C(=O)O"
Resp: 7.28

----------
reported-property: melting point

Cc1oc(C(C)(C)C)nc1COc1ccc(CC(OC(C)C)C(=O)O)c2sccc12 (centres unmarked) | 166 to 167 °C

Working through the 4 compounds below one at a time, give melting point for each.
1. CCCOC(Cc1ccc(OCCCc2nc(C(C)(C)C)oc2C)c2ccccc12)C(=O)O (racemic)
2. CCCOC(Cc1ccc(OCCc2nc(C(C)(C)C)oc2C)c2ccccc12)C(=O)O (centres unmarked)
3. CCCOC(Cc1ccc(OCc2nc(C(C)(C)C)oc2C)c2ccccc12)C(=O)O (centres unmarked)
4. C=CCCO[C@@H](Cc1ccc(OCCc2nc(C(C)(C)C)oc2C)c2ccsc12)C(=O)O

Resp:
["140 to 141 °C", "135 to 137 °C", "169 to 170 °C", "70 to 71 °C"]
